- PROTOCOL_DETAILS: yeast display, Sf9 membrane polyspecificity reagent, FACS + sequencing; frameworks hold sequencing errors
RECORDED_ENDPOINT: polyreactivity (PSR sort gate)

sequence_string=QVQHVESGGGLVQAGGSLRLSCAASGRIFGTYAMGWYRPAPGKERELVAAISWRGGSTYYADSVKGRFTISRDNAKNTVYLQMNSLKPEDTAVYYCAATWWSPSRGTKGDYWGQGTQVTVSS recorded_endpoint="polyreactivity (PSR sort gate)" result="low polyreactivity"
sequence_string=QVQLVESGGGLDQAGGSLRLSCAASGSIFDTYAMGWYIQAPGKSWELVAAISWGGGSTYYADSVKGRFTISRDNAKNTVYLQMNSLKPEDTAVYYCATEYFFLGGWYEYWGQGTQVTVSS recorded_endpoint="polyreactivity (PSR sort gate)" result="high polyreactivity"
sequence_string=QVQLVESGGGLVQAGGSLSLICAAYGTTFEYYAMRWYRQAPGKERELVATISIDGRTNYADSVKGRFTISRDNAKNTVYLQMISLKPEDTAVYYCAARPYWRHRYDYWGQGTQVTVSS recorded_endpoint="polyreactivity (PSR sort gate)" result="low polyreactivity"
sequence_string=QLQLVESGGGLVLAAGSLRLSCAASGYTFKSYAMGCSRQAPGKERELVAAISNGGNTYYADSVKGRFTISRDNAKNTVYIQMNSLKPEDTAVYYCAARYGYYYSRYDHWGQGTQVTVSS recorded_endpoint="polyreactivity (PSR sort gate)" result="low polyreactivity"
sequence_string=QVQLVESGGGLVQAGGILRLSCAASGRTFVRNTMGWYRQAPGKERELVAVISRSGGSTYYADSVKGRFTISRDNAKNTVYLQMNRLKPEDTAVYYCNADTYSAGDYWGQGSQVTVSS recorded_endpoint="polyreactivity (PSR sort gate)" result="high polyreactivity"
sequence_string=QVQLVESVGGLVQAGGSLRLSCAASGITFYDNAMGWYRQAPGKERELVAGISYSGGRTYYADSVKGRFTISRDNAKNTVYLQMNSLKPEDTAVYYCNARFGKYRSRQGYYYWGQGTQVTVSS recorded_endpoint="polyreactivity (PSR sort gate)" result="high polyreactivity"
sequence_string=QVQLVESGGGLVQAGGSLRLSCAASGGIFWYYTRVWYRQAPGKERELVATISSGGRTYYADSVKGRFTISRDNAKNTVYLQMNSLKPEHTAVYYCAAVGWYHDYYWGQGTQVTVSS recorded_endpoint="polyreactivity (PSR sort gate)" result="high polyreactivity"
sequence_string=QVQLVESGGGLVQAGGSLRLSFAASGFTFQWYGMGWSRQAPGKERELVAAINYSGGSTYYADSVKGSFTLSRDNAKNTVYLQMNSLKPEDTAVYYCAAEFYSWPWLRLAPWSMDYWGQGTQVTVSS recorded_endpoint="polyreactivity (PSR sort gate)" result="high polyreactivity"
sequence_string=QVQLVESGGGLVQAGGSLRLSCAASGSTFHNYAMGWYRQAPGKERELVAGISVRGGGTYYADSVKGRFTISRDNAKNTVYLQMNSLKPEDTAVYYCAKRSRYYYRYDYWGQGTQVTVSS recorded_endpoint="polyreactivity (PSR sort gate)" result="high polyreactivity"
sequence_string=QVQLVESGGRLVQAGGSLRLSCAASGRIFGPYVMGWYRQAPGKERELFAAISTSGTYTYYADSVNGRFTISPDNAKNTVYLQMNSLKPEDTAVYYCAKRSGARHRLMDYWGQGTQVTVSS recorded_endpoint="polyreactivity (PSR sort gate)" result="low polyreactivity"
sequence_string=QVQLVESGGGLVQAGGSLRLSCAASGRTFRYYAMGWYRQAPGKERELVASISRRGGSTHYADSVKVRFTISRDNAKNTVYLQMNSLKPEDTAVYYCAAYGYYTKVTKYDYWGQGTQVTVSS recorded_endpoint="polyreactivity (PSR sort gate)" result="high polyreactivity"

* * *

- PROTOCOL_DETAILS: yeast display, Sf9 membrane polyspecificity reagent, FACS + sequencing; frameworks hold sequencing errors
RECORDED_ENDPOINT: polyreactivity (PSR sort gate)

sequence_string=QVQLVESGGGLVQAGGSLRLSCPASGRTIEGYAMGWYRQATGKERELVAAISRRGGSTYYADSVKGRFTISRDNAKNTVFLQMNSLKPEDTAVYYCAARDASTGAVRYYYWGQGTQVTVSS recorded_endpoint="polyreactivity (PSR sort gate)" result="high polyreactivity"
sequence_string=QVQLVESGGGLVQAGGSLRLSCAASGRTFAYYAMGWYRQAPGKERELVATISWTTGSTYYADSVKGRFTISRDNAKNTVYLQMNSLKPEDTAVYYCNKRYNNPYWYPGRYPYDYWGQGTQVTVSS recorded_endpoint="polyreactivity (PSR sort gate)" result="high polyreactivity"
sequence_string=QVQLVESGGGLVQAGGSLRLSCAASGSTFQSYAMGWYTQAPGKERELVAAISARGGTTYYADSVKGRFTISRDNAKNTVYLQMNSLKPEDTAVYYCAAEWDTNFWYDYWGQGTQVTVSS recorded_endpoint="polyreactivity (PSR sort gate)" result="low polyreactivity"
sequence_string=QVQLVESGGGLVQAGGSLRISCAASGFIFRYNAMGWYRQAPGKERELVAAINSGDSTNYADSVKGRFTISRDNAKNTVYLQMNSLKPEDTAVYYYWGQGTQVTVSS recorded_endpoint="polyreactivity (PSR sort gate)" result="low polyreactivity"
sequence_string=QVQLVESGGGLVQAGGSLRLSCAASGSIFKGYAMGWYRQAPGKEREFVAAITSSDSNTNYADSVKGRFTFSRDNAKNTVYLQLHTLKPEDTAVYYCNARIYNRLYVPHYGFNYWGQGTQVTVSS recorded_endpoint="polyreactivity (PSR sort gate)" result="low polyreactivity"

* * *

- PROTOCOL_DETAILS: yeast display, Sf9 membrane polyspecificity reagent, FACS + sequencing; frameworks hold sequencing errors
RECORDED_ENDPOINT: polyreactivity (PSR sort gate)

sequence_string=QVQLVESGGGLVQAGGSLRLSCAASGRIFAWYAMGWYRQAPGKEREFVAASTYRAARTYYADSVKGRFTISRDNAKNTVYLQMNSLNPEDTAVYYCNRQFGRRVYISHPGPGYWGQGTQVTVSS recorded_endpoint="polyreactivity (PSR sort gate)" result="high polyreactivity"
sequence_string=QVQLVESWGGLVQAAGSLRLSCAASGFIFRYNTMGSSRQAPAKERESVAAFSVSGARTYYADSVKGRFTISRDNAKNTVYLLMNSLKTEDTAVYYCNRRYPFYSRYNNDYWGQGTQVTVSS recorded_endpoint="polyreactivity (PSR sort gate)" result="high polyreactivity"
sequence_string=QVQLVESGGGLVQAGVSLRLSCAASGIIFAGYVMGWYRQAPGKARELVAAISYRGGSTNYADSVKGRFTISRDNAKNTVYLQMNSLKPEDTAVYYCNRYSRDSRYGYLKFGYDYWGQGTQVTVSS recorded_endpoint="polyreactivity (PSR sort gate)" result="high polyreactivity"
sequence_string=QVQLQESGGGLVQAGGSLRLSCAASGTISPLPAMGWYRQAPGKEREFVAGIDTGAITNYADSVKGRFTISRDNAKNTVYLQMNSLKPEDTPVYYCAATFYYSGHDDYWGQGTQVPVSS recorded_endpoint="polyreactivity (PSR sort gate)" result="low polyreactivity"
sequence_string=QVQLVESGGGLVQAGASLRLSCAASGSIFYGNTMGWYRQAPGKERELVAAISSGGSTKYADSVKGRFTISRDNAKNTVYLQMNSLKPEDTAVYYCAADLPRYWVTWMDYWGQGTQVSVSS recorded_endpoint="polyreactivity (PSR sort gate)" result="low polyreactivity"
sequence_string=QVQLVESGGGLVQAGGSLRLSSAASGITFRGSAMGWYRQAPGKERELVASITNTDSTYYADSVKGRFTISRDNAKHTVYLQMNSLKPEDTAVYYCAARRGRKYGYWGQGTQVTVSS recorded_endpoint="polyreactivity (PSR sort gate)" result="high polyreactivity"
sequence_string=QVQIVESGGGLVQAGGSLRLSCAASGSTLGVNAMGWYRQAPGKERELVAAISKSGGGTYYADSVKGRFTISRDIAKNTVYLQMNRLIPEDTAVYYCNAPVSRKYYSWGQGTQVTVSS recorded_endpoint="polyreactivity (PSR sort gate)" result="high polyreactivity"
sequence_string=QVQLVESGGGLVQAGGSLRLSCAASGSTFFYYAMGWYRQAPGKERELVARITRGGGSTNYADSVKGRFTISRDNAKNTVYLQMNSLKREDTAVYYCAKRRKVTYDYWGQGTQVTVSS recorded_endpoint="polyreactivity (PSR sort gate)" result="high polyreactivity"
sequence_string=QVQLVESGGGLVQAGGSLRLSCAASGYIFTYYAMGWYRQAPGKERELVAAISTSGTSTYYADSVKGRFTISRDNAKNTVYLQMNSLKPEDTAVYYCAKRSGARHRLMDYWGQGTQVTVSS recorded_endpoint="polyreactivity (PSR sort gate)" result="low polyreactivity"
sequence_string=QVQLVESGGGLVQAGGSLRLSCAASGRTFFGYAMGWYRQAPGTERELVAAINWGGASTYYADSVKGRFTISRDNAKNTVYLQMNSLKPEATAVYYCAADSVPSRPTYGRYDYWGQGTQVTVSS recorded_endpoint="polyreactivity (PSR sort gate)" result="low polyreactivity"
sequence_string=QVQLVESGGGLVQAGGILRLSCAASGSIYKPNTMGWYRQAPGKERELVAAITRGGRTKYADSVKGRFTISRDNAKNTVYLQMNSLKPEDTAVYYCNKARYTVISYDEYDDWGQGTQVTGSS recorded_endpoint="polyreactivity (PSR sort gate)" result="high polyreactivity"

Entry source: the nanobody polyreactivity screen of Harvey et al. (2022)
